Study Target: T1, melanocortin-1 receptor (MC1R) (UniProt Q01726 1-317, limits assumed)
T1 construct: whole, on cells; also called Hek293/MC1R cells; A375/MC1R cells
T1 sequence (Q01726 whole entry): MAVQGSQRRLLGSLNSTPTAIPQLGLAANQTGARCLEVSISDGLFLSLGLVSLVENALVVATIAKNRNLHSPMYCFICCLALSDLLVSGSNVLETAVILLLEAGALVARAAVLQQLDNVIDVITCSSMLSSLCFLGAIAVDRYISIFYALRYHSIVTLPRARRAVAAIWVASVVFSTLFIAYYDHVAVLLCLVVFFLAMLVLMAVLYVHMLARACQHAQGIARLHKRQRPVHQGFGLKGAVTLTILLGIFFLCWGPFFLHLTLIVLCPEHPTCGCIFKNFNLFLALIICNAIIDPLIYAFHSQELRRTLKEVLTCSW
Test: not stated in the sentence (binding affinity of the DOTA conjugate and its chelates)
pKi: −log10 of the molar value. Square brackets hold non-standard residues; d marks the D form. Side chains are listed from the residue outwards. Ends that are not written are not given here. * marks the point of attachment. DOTA = O=C(O)CN1CCN(CC(=O)O)CCN(CC(=O)*)CCN(CC(=O)O)CC1; Ahx = NCCCCCC(=O)O

{"Binder": "H[dF]RWGK([Ahx-DOTA])-NH2 (not fully specified (N-terminus), also called MC1RL-DOTA; DOTA labeled conjugate of the MC1R specific ligand) [DOTA-MC1RL (unlabeled)]", "pKi": 9.52}
